In this section, each of the compounds is paired with its reported pIC50.
- assay_system: hTSHR (Homo sapiens, UniProt P16473)
- Construct: expressed in transfected cells
- Sequence (P16473 21-764): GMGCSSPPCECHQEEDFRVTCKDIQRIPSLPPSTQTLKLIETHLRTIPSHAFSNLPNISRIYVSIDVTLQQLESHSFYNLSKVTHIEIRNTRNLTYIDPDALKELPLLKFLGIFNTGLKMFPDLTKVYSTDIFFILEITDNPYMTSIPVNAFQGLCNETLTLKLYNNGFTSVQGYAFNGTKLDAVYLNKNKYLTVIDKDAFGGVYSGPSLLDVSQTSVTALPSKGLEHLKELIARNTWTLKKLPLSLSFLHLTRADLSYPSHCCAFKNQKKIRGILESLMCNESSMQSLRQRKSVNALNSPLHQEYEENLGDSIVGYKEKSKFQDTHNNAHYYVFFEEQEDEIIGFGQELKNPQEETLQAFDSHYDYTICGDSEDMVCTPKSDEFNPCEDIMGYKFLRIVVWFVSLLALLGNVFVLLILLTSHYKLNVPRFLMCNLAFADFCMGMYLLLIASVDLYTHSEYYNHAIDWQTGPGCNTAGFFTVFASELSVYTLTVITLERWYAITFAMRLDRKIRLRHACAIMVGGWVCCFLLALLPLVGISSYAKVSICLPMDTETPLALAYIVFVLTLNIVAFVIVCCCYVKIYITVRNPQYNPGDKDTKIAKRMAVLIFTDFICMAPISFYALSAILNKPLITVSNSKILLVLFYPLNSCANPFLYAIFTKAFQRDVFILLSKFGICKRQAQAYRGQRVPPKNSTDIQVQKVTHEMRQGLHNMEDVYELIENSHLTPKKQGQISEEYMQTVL
- protocol_notes: hTSHR TR-FRET cAMP Assay (inhibition of M22-stimulated cAMP production)
- Assay type: cell-based
- stated_conditions: Expi293F Inducible cells stably expressing hTSHR; cAMP HTRF; stimulated with EC80 of anti-TSHR antibody M22; 15 min compound preincubation, 30 min at 37° C.; read-out: Activity (IC50 bins)
pIC50: −log10 of the molar value.

# compound, reported_endpoint, reported_measurement
data = [
    ("O=C(Nc1ccc2c(c1)ncc(=O)n2Cc1ccccc1)C1CCCC1", "pIC50", "< 6.00"),
]

Query: I have this compound here, CC1CC(=O)N(Cc2ccccc2)c2ccc(NC(=O)NC(C)(C)C)cc21 (stereo not drawn) , and I need its recorded pIC50.
Reply: < 6.00

Query: Please give the result for C[C@@H](c1cccc(OC2CCCC2)c1)n1c(=O)cnc2cc(NC(=O)NC(C)(C)C)ccc21 too.
Reply: < 6.00
